Origin of the recorded values: ChEMBL document CHEMBL1201862

- System: MDA-MB-231
- experiment-description: NCI tumour cell line growth inhibition, 48 h
Activity calls are given as the source filed them. No stated cut-off is given here; in the data, active = GI50 up to about 1.1 µM and inactive = higher.
Choose one outcome from this list and give only that: yes = active, no = inactive

Example cases with answers are listed next.
>>> group_label("C1=N\\CCN2CCN(CC/N=C\\c3ccc(cc3)OCc3cccc(n3)COc3ccc/1cc3)CC2")
"no"
>>> group_label("O=C1OC(C2Cc3cc4c(cc3C2=O)CCC4)c2ccccc21 (stereo unspecified)")
"no"
>>> group_label("CC(C)(Oc1ccc(-c2cccc3ccccc23)cc1)C(=O)O")
"no"

Prompt: Hey, what did the test say about COC(=O)C1(Cc2cccc(C)c2)Cc2c(C)cccc2C1=O (stereo unspecified) ?
Response: no

Prompt: Now the same for Nc1ncnc2c1ncn2C1OC(COP(=O)(O)CP(=O)(O)O)C(O)C1O (stereo unspecified)
Response: no

Prompt: // next record Cc1ccc2c(c1)C1(C)OC(C=CC1=O)O2 (stereo unspecified)
Response: yes

---

Please provide measured GI50 for the entries that follow.
- Test system: BT-549
- experiment-description: NCI tumour cell line growth inhibition, 48 h
Calls of active or inactive are those of the source. No stated cut-off is given here; in the data, active = GI50 up to about 1.1 µM and inactive = higher.

Hey, can you go through the list below and give me GI50 for every item?
1. NN/C(=N\S(=O)(=O)c1cc(Cl)c(Oc2ccc([N+](=O)[O-])cc2Cl)c(Cl)c1)Nc1ccc(Cl)cc1
2. Cc1ccc(-n2nnc3c(NNc4ccccc4)n[nH]c(=O)c32)cc1
3. COc1ccc2c(c1)Cc1cc(/N=[N+](\[O-])c3ccc4c(c3)Cc3cc(OC)ccc3-4)ccc1-2
4. CN(C)CCNc1ccc(NCC[N+](C)(C)Cc2ccc([N+](=O)[O-])cc2)c2c1C(=O)c1c(O)ccc(O)c1C2=O
5. CN(C)/C=N/S(=O)(=O)c1nn2c(C=O)c(-c3ccccc3)nc2s1

Response:
["18.4 µM (inactive)", "73.3 µM (inactive)", "76.7 µM (inactive)", "18.8 µM (inactive)", "4.65 µM (inactive)"]

---

Field: GI50. Provide a value for each of the molecules that follow.
- System: SNB-75
- experiment-description: NCI tumour cell line growth inhibition, 48 h
Activity calls are given as the source filed them. Cut-off read from the data, not from the text of the source: active = GI50 up to about 1.1 µM and inactive = higher.

>>> obs_value("O=C(COC(=O)c1cccc2c(=O)c3ccccc3[nH]c12)Nc1ccc(Cl)cc1")
"24.3 µM (inactive)"
>>> obs_value("COc1ccc(C[C@@H]2Cc3cc(OC)c(OC)cc3CN2C)cc1")
"> 100 µM (inactive)"
>>> obs_value("O=C1CSC(/C(=C/c2ccccc2)c2nc3ccccc3[nH]2)=N1")
"14.2 µM (inactive)"
>>> obs_value("CC(=O)O[C@H]1CCc2c(cc(N)c3c2C(=O)C[C@]2(C)C([C@H](C)CCCC(C)C)CCC32C)C1(C)C (stereo not given in full)")
"> 100 µM (inactive)"
>>> obs_value("CCOC(=O)C(=C=Cc1cccs1)C(=O)c1ccccc1")
"15.8 µM (inactive)"
>>> obs_value("O=c1[nH]nc(Cc2ccc(Cl)cc2)n1/N=C/c1ccco1")
"28.6 µM (inactive)"
>>> obs_value("CC(C)(C)c1cc(Br)c(O)c(CN(Cc2cc(C(C)(C)C)cc(Br)c2O)C2CCCCC2)c1")
"8.55 µM (inactive)"
>>> obs_value("O=C(OCCN1CCCCC1)C(c1ccccc1)C1(O)CCSCC1 (stereo not given)")
"83.4 µM (inactive)"
>>> obs_value("O=C1/C(=C/C=C/c2ccccc2)N=C(c2ccccc2)N1c1ccc(S(=O)(=O)Nc2nccs2)cc1")
"45.1 µM (inactive)"

With those in mind, consider the next molecule.
Prompt: # query: GI50 of entry "O=C1CN(c2ccccc2)C(=O)CN1NCNN1CC(=O)N(c2ccccc2)CC1=O"
Response: > 100 µM (inactive)
